# Tested on: Sonic hedgehog protein (Shh)
# measurementNotes: small-molecule binders of Shh protein, primary screen, biochemical, small-molecule microarray, 635/667 nm fluorescence (AID 1151);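 further: Shh protein binding to compounds spotted on small-molecule microarray slides; score combines spot fluorescence intensity with signal-to-noise across triplicate slides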
# condition: small-molecule microarray binding, 635 nm fluorescence; higher = more signal
Would you mind telling me the reported composite z-score of each entry?
Just the number, please.

The compound CCCCCCc1nc(CCCc2cc3c(c(CCCCCC)n2)[Si](C(C)C)(C(C)C)OC3)cc2c1[Si](C(C)C)(C(C)C)OC2 showed composite z-score equal to 0.551

// composite z-score lookup, compound = O=C1OCCC=C[C@H]2OC34C=CCN(Cc5ccccc5)C(=O)[C@H]3N(CCCCCO)C(=O)[C@@H]4C12 (some centres not stated) , result: -0.211

The reported composite z-score of the compound O=c1cccc(CCc2ccccc2)o1 was 0.943

The reported value for C=C[C@@H](COC(C)=O)N(Cc1ccccc1[N+](=O)[O-])S(=O)(=O)c1ccc(Br)cc1 in terms of composite z-score is 1.97

In plain terms, CC(=O)C1=CCC(c2ccccc2)N(S(=O)(=O)c2ccc(C)cc2)C1 (configuration not stated) has a documented composite z-score of -0.194

The compound CC(C)C(=C=CC[C@@H](O)c1ccccc1OCCO)C[C@@H](O)c1ccccn1 showed composite z-score equal to 1.14

For this compound ( CCCN1C(=O)[C@]2(COC(c3ccc(OCCCO)cc3)=N2)Cc2ccccc21 ), measured composite z-score is 0.184

Data point: CCCC[C@@H]1C[C@H]1[C@@H](NC(=O)c1ccc(-c2ccccc2)cc1)c1ccc(-c2ccccc2)cc1 ; composite z-score = 2.02

For reference, reported composite z-score for COC(=O)C[C@H]1O[C@]2(C(=O)N(Cc3ccccc3)c3ccc(NC(C)=O)cc32)[C@@H](C)[C@@H]1[Si](C)(C)c1ccc(OC)cc1 stands at 0.978

Entry COCCOC(=O)N1C(=O)[C@@]2(c3cc(C#CCCO)ccc31)[C@H](C(=O)NC[C@H](O)c1ccccc1)[C@H]1C(=O)O[C@H](c3ccccc3)[C@H](c3ccccc3)N1[C@@H]2c1ccc(O)cc1 — recorded composite z-score = 1.79

Consider CC(C)(C)OC(=O)CC[C@@]1(C(=O)O)N=C(c2ccc(OCCCO)cc2)O[C@@H]1c1ccccc1N=[N+]=[N-] . Its measured composite z-score is -0.905

Lab note: measured composite z-score of CC(C)Cc1ccc(CN2CC[C@@H](NS(=O)(=O)c3ccccc3)C2)cc1 was 1.45

Summary for this compound, CN1CCC(CCCO)=CC1c1ccc(CN2CCCC2)cc1 (configuration not stated) : composite z-score is 2.08

CCOC(=O)C1=CC[C@@H](c2ccccc2Cl)N(S(=O)(=O)c2ccc(C)cc2)C1 has a reported composite z-score of -0.53

Lookup result for C=CCC(OC(C)=O)[C@@H]1[C@@H](N(Cc2ccc(-c3cccc(C(F)(F)F)c3)o2)C(=O)c2ccc(C)cc2)c2cc(OCCCO)ccc2N1C(=O)c1ccc(-c2ccccc2)cc1 (some centres not stated) ; measured composite z-score: 1.32

Field composite z-score (entry O=C(O)[C@H]1C[C@H]2C(=O)NCC(=O)N2[C@H]1c1ccc(O)cc1 ) reads 0.751

Field composite z-score (entry CCCCC(CC)C(O)C1C=CC2C(=O)N(c3ccccc3)C(=O)C2N1Nc1ccccc1 (configuration not stated) ) reads -0.751
